System: Hepatitis C virus
Experiment: Antiviral activity against Hepatitis C virus genotype 1b infected in human HuH7 cells in presence of 40% human plasma
Format: functional, organism-based, Hepacivirus hominis
Conditions: Huh-7, Plasma
Examples of compounds with documented pEC50 follow.
Please treat pEC50 as minus the base-10 logarithm of the molar concentration.

Previously resolved entries follow.
{"columns": ["COMPOUND", "EXPERIMENTAL_TARGET", "pEC50"],
 "data": [
  ["COc1c(-c2ccc3c(c2)CCC3NNS(C)(=O)=O)cc(-n2ccc(=O)[nH]c2=O)cc1C(C)(C)C (stereo not drawn)", "Hepatitis C virus", 6.02],
  ["COc1c(-c2ccc3c(c2)CCC3CNS(C)(=O)=O)cc(-n2ccc(=O)[nH]c2=O)cc1C(C)(C)C (stereo not drawn)", "Hepatitis C virus", 7.89],
  ["COc1c(-c2ccc3c(c2)CCC3(C)CNS(C)(=O)=O)cc(-n2ccc(=O)[nH]c2=O)cc1C(C)(C)C (stereo not drawn)", "Hepatitis C virus", 6.25],
  ["COc1c(-c2ccc3c(CNS(C)(=O)=O)csc3c2)cc(-n2ccc(=O)[nH]c2=O)cc1C(C)(C)C", "Hepatitis C virus", 7.34],
  ["COc1c(-c2ccc3c(c2)CC=C3CN(C)S(C)(=O)=O)cc(-n2ccc(=O)[nH]c2=O)cc1C(C)(C)C", "Hepatitis C virus", 7.30]
]}

Asked: May I ask what pEC50 has been recorded for COc1c(-c2ccc3c(c2)CC/C3=N\NS(C)(=O)=O)cc(-n2ccc(=O)[nH]c2=O)cc1C(C)(C)C ?
Given back: 9.00

Asked: Try this compound next: COc1c(-c2ccc3c(CNS(C)(=O)=O)coc3c2)cc(-n2ccc(=O)[nH]c2=O)cc1C(C)(C)C
Given back: 6.59
